Values from paper PMC7071059

Measured metric: pIC50
Quick note: pIC50 means taking -log10 of the concentration in moles per liter.

Case CC(C)c1nc2ccccc2n1CC(=O)N/N=C/c1cccc(OCc2ccccc2)c1 [Compound 17a] , UniProt:P09619, pIC50 recorded as 7.30

----------
- Test system: HS 578T
- Protocol description: NCI 60 one dose (10 μM) anticancer assay
- Type: cell-based
- Measurement conditions: Homo sapiens, 10 µM one dose, Breast Cancer, read-out: Growth Inhibition % HS 578T
For each of the compounds below, state its inhibition at 10 µM.
Return type: number; implicit unit %.

Case COc1cc(/C=N/NC(=O)Cn2c(-c3ccc(C)o3)nc3ccccc32)ccc1OCc1ccccc1 [Compound 17f] , HS 578T, inhibition at 10 µM recorded as 30

Case C/C(=N\NC(=O)Cn1c(C(C)C)nc2ccccc21)c1ccccc1 [Compound 14a] , HS 578T, inhibition at 10 µM recorded as 24

Case CC(C)c1nc2ccccc2n1CC(=O)N/N=C/c1cccc(OCc2ccccc2)c1 [Compound 17a] , HS 578T, inhibition at 10 µM recorded as 20

----------
For each of the compounds below, state its IC50.

Case Cc1ccc(-c2nc3ccccc3n2CC(=O)N/N=C/c2cccc(OCc3ccccc3)c2)o1 [Compound 17b] , VEGFR-2 (Homo sapiens, UniProt P35968), IC50 recorded as 140 nM

Case COc1ccc(/C=N/NC(=O)Cn2c(C(C)C)nc3ccccc32)cc1 [Compound 13d] , VEGFR-2 (Homo sapiens, UniProt P35968), IC50 recorded as 90 nM

Case COc1ccc(OC)c(/C=N/NC(=O)Cn2c(C(C)C)nc3ccccc32)c1 [Compound 13f] , VEGFR-2 (Homo sapiens, UniProt P35968), IC50 recorded as 400 nM

Case CC(C)c1nc2ccccc2n1CC(=O)N/N=C/c1cccc(OCc2ccccc2)c1 [Compound 17a] , VEGFR-2 (Homo sapiens, UniProt P35968), IC50 recorded as 110 nM

----------
- Tested on: SNB-19
- Protocol description: NCI 60 one dose (10 μM) anticancer assay
- Type: cell-based
- Measurement conditions: Homo sapiens, 10 µM one dose, CNS Cancer, read-out: Growth Inhibition % SNB-19
Measured metric: inhibition at 10 µM (%)
Return type: number; implicit unit %.

Case CC(C)c1nc2ccccc2n1CC(=O)N/N=C/c1cccc(OCc2ccccc2)c1 [Compound 17a] , SNB-19, inhibition at 10 µM recorded as 22

Case COc1cc(/C=N/NC(=O)Cn2c(-c3ccc(C)o3)nc3ccccc32)ccc1OCc1ccccc1 [Compound 17f] , SNB-19, inhibition at 10 µM recorded as 20

Case Cc1ccc(-c2nc3ccccc3n2CC(=O)N/N=C/c2cccc(OCc3ccccc3)c2)o1 [Compound 17b] , SNB-19, inhibition at 10 µM recorded as 21

----------
For each of the compounds below, state its inhibition at 10 µM.
- Test system: HS 578T
- Protocol description: NCI 60 one dose (10 μM) anticancer assay
- Type: cell-based
- Measurement conditions: Homo sapiens, 10 µM one dose, Breast Cancer, read-out: Growth Inhibition % HS 578T
Return type: number; implicit unit %.

compound CC(C)c1nc2ccccc2n1CC(=O)N/N=C/c1ccc(OCc2ccccc2)cc1 [Compound 17c] , inhibition at 10 µM observed: 16

compound Cc1ccc(-c2nc3ccccc3n2CC(=O)N/N=C/c2cccc(OCc3ccccc3)c2)o1 [Compound 17b] , inhibition at 10 µM observed: 25

compound Cc1ccc(-c2nc3ccccc3n2CC(=O)N/N=C/c2ccc(OCc3ccccc3)cc2)o1 [Compound 17d] , inhibition at 10 µM observed: 32

----------
- Test system: HCT-15
- Protocol description: NCI 60 one dose (10 μM) anticancer assay
- Format: cell-based
- Measurement conditions: Homo sapiens, 10 µM one dose, Colon Cancer, read-out: Growth Inhibition % HCT-15
Measured metric: inhibition at 10 µM (%)
Return type: number; implicit unit %.

Case COc1cc(/C=N/NC(=O)Cn2c(-c3ccc(C)o3)nc3ccccc32)ccc1OCc1ccccc1 [Compound 17f] , HCT-15, inhibition at 10 µM recorded as 26

Case Cc1ccc(-c2nc3ccccc3n2CC(=O)N/N=C/c2cccc(OCc3ccccc3)c2)o1 [Compound 17b] , HCT-15, inhibition at 10 µM recorded as 35

Case Cc1ccc(-c2nc3ccccc3n2CC(=O)N/N=C/c2ccc(OCc3ccccc3)cc2)o1 [Compound 17d] , HCT-15, inhibition at 10 µM recorded as 25

----------
For each of the compounds below, state its inhibition at 10 µM.
- Test system: SNB-19
- Protocol description: NCI 60 one dose (10 μM) anticancer assay
- Assay type: cell-based
- Measurement conditions: Homo sapiens, 10 µM one dose, CNS Cancer, read-out: Growth Inhibition % SNB-19

compound C/C(=N\NC(=O)Cn1c(C(C)C)nc2ccccc21)c1ccccc1 [Compound 14a] , inhibition at 10 µM observed: < 10%

compound CC(C)c1nc2ccccc2n1CC(=O)N/N=C/c1ccc(OCc2ccccc2)cc1 [Compound 17c] , inhibition at 10 µM observed: < 10%

compound Cc1ccc(-c2nc3ccccc3n2CC(=O)N/N=C/c2ccc(OCc3ccccc3)cc2)o1 [Compound 17d] , inhibition at 10 µM observed: < 10%

----------
- Target desc: FGFR-1 (Homo sapiens)
- Sequence (P11362 22-822): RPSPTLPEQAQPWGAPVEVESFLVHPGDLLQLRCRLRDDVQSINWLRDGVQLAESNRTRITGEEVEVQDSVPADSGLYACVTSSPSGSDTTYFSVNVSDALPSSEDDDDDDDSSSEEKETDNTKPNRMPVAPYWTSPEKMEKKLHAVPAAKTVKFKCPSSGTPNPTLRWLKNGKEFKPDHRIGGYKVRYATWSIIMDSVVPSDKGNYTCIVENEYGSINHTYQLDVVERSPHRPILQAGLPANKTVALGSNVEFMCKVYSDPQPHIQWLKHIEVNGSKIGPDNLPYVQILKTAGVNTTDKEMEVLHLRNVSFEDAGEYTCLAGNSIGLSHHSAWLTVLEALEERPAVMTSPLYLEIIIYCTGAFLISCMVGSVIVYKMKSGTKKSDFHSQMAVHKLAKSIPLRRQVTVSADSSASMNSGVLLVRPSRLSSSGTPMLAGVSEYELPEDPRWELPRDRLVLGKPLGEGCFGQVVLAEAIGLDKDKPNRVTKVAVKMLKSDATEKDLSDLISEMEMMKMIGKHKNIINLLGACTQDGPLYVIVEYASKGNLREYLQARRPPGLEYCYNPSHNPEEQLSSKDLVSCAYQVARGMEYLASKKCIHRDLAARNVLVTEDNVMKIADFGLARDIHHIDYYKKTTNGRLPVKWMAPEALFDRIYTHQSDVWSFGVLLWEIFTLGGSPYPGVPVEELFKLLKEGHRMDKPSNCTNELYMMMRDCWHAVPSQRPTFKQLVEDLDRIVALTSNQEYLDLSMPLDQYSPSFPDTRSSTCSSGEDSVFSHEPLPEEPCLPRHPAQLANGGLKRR
Measured metric: IC50 (nM)
Return type: number; implicit unit nM.

compound CC(C)c1nc2ccccc2n1CC(=O)N/N=C/c1cccc(OCc2ccccc2)c1 [Compound 17a] , IC50 observed: 110

----------
- System: UACC-62
- Protocol description: NCI 60 one dose (10 μM) anticancer assay
- Assay type: cell-based
- Measurement conditions: Homo sapiens, 10 µM one dose, Melanoma, read-out: Growth Inhibition % UACC-62
For each of the compounds below, state its inhibition at 10 µM.
Return type: number; implicit unit %.

compound CC(C)c1nc2ccccc2n1CC(=O)N/N=C/c1cccc(OCc2ccccc2)c1 [Compound 17a] , inhibition at 10 µM observed: 41

compound Cc1ccc(-c2nc3ccccc3n2CC(=O)N/N=C/c2cccc(OCc3ccccc3)c2)o1 [Compound 17b] , inhibition at 10 µM observed: 29

compound C/C(=N\NC(=O)Cn1c(C(C)C)nc2ccccc21)c1ccccc1 [Compound 14a] , inhibition at 10 µM observed: 13

compound COc1cc(/C=N/NC(=O)Cn2c(-c3ccc(C)o3)nc3ccccc32)ccc1OCc1ccccc1 [Compound 17f] , inhibition at 10 µM observed: 22

compound CC(C)c1nc2ccccc2n1CC(=O)N/N=C/c1ccc(OCc2ccccc2)cc1 [Compound 17c] , inhibition at 10 µM observed: 26

compound COc1cc(/C=N/NC(=O)Cn2c(C(C)C)nc3ccccc32)ccc1OCc1ccccc1 [Compound 17e] , inhibition at 10 µM observed: 22

----------
Measured metric: melting point

molecule COc1cc(C=O)ccc1OCCOc1ccc(/C=N/NC(=O)Cn2c(-c3ccc(C)o3)nc3ccccc32)cc1OC [Compound 22b] , melting point observed: 203 to 205 °C

molecule C/C(=N\NC(=O)Cn1c(C(C)C)nc2ccccc21)c1ccc(Br)c([N+](=O)[O-])c1 [Compound 14d] , melting point observed: 231 to 233 °C

molecule COc1ccc(/C=N/NC(=O)Cn2c(C(C)C)nc3ccccc32)cc1 [Compound 13d] , melting point observed: 190 to 192 °C

molecule Cc1ccc(-c2nc3ccccc3n2CC(=O)N/N=C/c2ccc(OCc3ccccc3)cc2)o1 [Compound 17d] , melting point observed: 201 to 203 °C

----------
- System: T-47D
- Protocol description: NCI 60 one dose (10 μM) anticancer assay
- Assay type: cell-based
- Measurement conditions: Homo sapiens, T47D; 10 µM one dose; Breast Cancer; read-out: Growth Inhibition % T-47D
Measured metric: inhibition at 10 µM (%)
Return type: number; implicit unit %.

compound COc1cc(/C=N/NC(=O)Cn2c(C(C)C)nc3ccccc32)ccc1OCc1ccccc1 [Compound 17e] , inhibition at 10 µM observed: 27

compound CC(C)c1nc2ccccc2n1CC(=O)N/N=C/c1cccc(OCc2ccccc2)c1 [Compound 17a] , inhibition at 10 µM observed: 32

compound Cc1ccc(-c2nc3ccccc3n2CC(=O)N/N=C/c2cccc(OCc3ccccc3)c2)o1 [Compound 17b] , inhibition at 10 µM observed: 49

compound Cc1ccc(-c2nc3ccccc3n2CC(=O)N/N=C/c2ccc(OCc3ccccc3)cc2)o1 [Compound 17d] , inhibition at 10 µM observed: 31

compound CC(C)c1nc2ccccc2n1CC(=O)N/N=C/c1ccc(OCc2ccccc2)cc1 [Compound 17c] , inhibition at 10 µM observed: 24

compound COc1cc(/C=N/NC(=O)Cn2c(-c3ccc(C)o3)nc3ccccc32)ccc1OCc1ccccc1 [Compound 17f] , inhibition at 10 µM observed: 31

----------
For each of the compounds below, state its melting point.

compound CC(C)c1nc2ccccc2n1CC(=O)N/N=C/c1ccc(OCc2ccccc2)cc1 [Compound 17c] , melting point observed: 209 to 211 °C

compound COc1cc(C=O)ccc1OCCOc1ccc(/C=N/NC(=O)Cn2c(C(C)C)nc3ccccc32)cc1OC [Compound 22a] , melting point observed: 218 to 220 °C

compound COC(=O)COc1ccc(/C=N/NC(=O)Cn2c(-c3ccc(C)o3)nc3ccccc32)cc1OC [Compound 19b] , melting point observed: 150 to 152 °C

compound C/C(=N\NC(=O)Cn1c(C(C)C)nc2ccccc21)c1ccccc1 [Compound 14a] , melting point observed: 176 to 178 °C

compound COc1ccc(NC(=S)NNC(=O)Cn2c(-c3ccc(C)o3)nc3ccccc32)cc1 [Compound 24c] , melting point observed: 189 to 191 °C

compound CC(C)c1nc2ccccc2n1CC(=O)c1ccc(C#N)cc1 [Compound 6] , melting point observed: 209 to 211 °C

compound CCOC(=O)Cn1c(C(C)C)nc2ccccc21 [Compound 8c] , melting point observed: 103 to 105 °C

compound CCOC(=O)COc1ccc(/C=N/NC(=O)Cn2c(C(C)C)nc3ccccc32)cc1OC [Compound 19c] , melting point observed: 93 to 95 °C

compound COc1cc(/C=N/NC(=O)Cn2c(C(C)C)nc3ccccc32)ccc1O [Compound 13g] , melting point observed: 165 to 167 °C

compound CC(C)c1nc2ccccc2[nH]1 [Compound 4a, 2-Isopropyl-1H-benzo[d]imidazole] , melting point observed: 233 to 235 °C

compound CC(C)c1nc2ccccc2n1CC(=O)NN [Compound 10a] , melting point observed: 243 to 245 °C

compound COc1cc(/C=N/NC(=O)Cn2c(-c3ccc(C)o3)nc3ccccc32)ccc1OCc1ccccc1 [Compound 17f] , melting point observed: 139 to 141 °C

compound C/C(=N\NC(=O)Cn1c(C(C)C)nc2ccccc21)c1ccccc1C [Compound 14b] , melting point observed: 238 to 240 °C

compound Cc1ccc(-c2nc3ccccc3n2CC(=O)N/N=C/c2cccc(OCc3ccccc3)c2)o1 [Compound 17b] , melting point observed: 180 to 182 °C

compound COC(=O)COc1ccc(/C=N/NC(=O)Cn2c(C(C)C)nc3ccccc32)cc1OC [Compound 19a] , melting point observed: 175 to 177 °C

compound CC(C)c1nc2ccccc2n1CC(=O)N/N=C/c1ccccc1Cl [Compound 13a] , melting point observed: 211 to 213 °C

compound CC(C)c1nc2ccccc2n1CC(=O)N/N=C/c1cccc(O)c1 [Compound 13b] , melting point observed: 249 to 251 °C

compound CCOC(=O)COc1ccc(/C=N/NC(=O)Cn2c(-c3ccc(C)o3)nc3ccccc32)cc1OC [Compound 19d] , melting point observed: 136 to 138 °C
